# protocol-text: NCI Yeast Anticancer Drug Screen. Data for the cln2 rad14 strain (AID 165);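 further: 0% = growth equal to vehicle treated cultures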
# applied-conditions: S. cerevisiae cln2 rad14 strain, at 50.0 µM, active compounds read high
Compounds without any hit were thinned out: in the full panel of roughly 79,000, 15% have a hit.
quantity-name: growth inhibition (%)
Please respond with the number in % and leave the unit unwritten.

Worked cases, growth inhibition given:
1) O=C(O)C(O)c1ccccc1 (stereo not drawn)    -48
2) CC1=C(/C=C/C(C)=C/C=C/C(C)=C/CO)C(C)(C)CCC1    10.7
3) Oc1ccc(N=Nc2ccc(Br)cc2)c(O)c1    -20.1
4) COC(=O)c1ccccc1Br    -22.1
5) O=C1Cc2cc(O)ccc2O1    -0.85

Request: Looking for the measured growth inhibition of Cc1c(O)cnc2nn(-c3ccccc3)c(=N)n12 , can you help?
Result: 15.9

Request: Try this compound next: CC(O)COc1ccc(-c2ccccc2)cc1 (stereo not drawn)
Result: 15.9

Request: [O-][N+](=Nc1cccc(Cl)c1)c1cccc(Cl)c1
Result: 16.1

Request: Next entry: CC(=O)OCCC(C)CCC=C(C)C (stereo not drawn)
Result: -18.1

Request: // next record S=c1sc2ccccc2n1CN1CCCCC1
Result: 10.6

Request: Now give it for CC(C)NC(=O)OCc1c(COC(=O)NC(C)C)c(-c2ccc(Cl)c(Cl)c2)n2c1SCC2 too.
Result: -1.35

Request: How about this compound: CC1(C(N)=O)CCC(C(=O)O)C1(C)C (stereo not drawn)
Result: -29.9

Request: Would you kindly repeat that for CC1(C(=O)O)NC(C(=O)O)Cc2c1[nH]c1ccccc21 (stereo not drawn) ?
Result: 3.65
